These entries and their values trace back to patent US9771369B2.

# SYSTEM UNDER TEST: c-Kit kinase (Homo sapiens (Human), UniProt P10721)
# Sequence (P10721 26-976): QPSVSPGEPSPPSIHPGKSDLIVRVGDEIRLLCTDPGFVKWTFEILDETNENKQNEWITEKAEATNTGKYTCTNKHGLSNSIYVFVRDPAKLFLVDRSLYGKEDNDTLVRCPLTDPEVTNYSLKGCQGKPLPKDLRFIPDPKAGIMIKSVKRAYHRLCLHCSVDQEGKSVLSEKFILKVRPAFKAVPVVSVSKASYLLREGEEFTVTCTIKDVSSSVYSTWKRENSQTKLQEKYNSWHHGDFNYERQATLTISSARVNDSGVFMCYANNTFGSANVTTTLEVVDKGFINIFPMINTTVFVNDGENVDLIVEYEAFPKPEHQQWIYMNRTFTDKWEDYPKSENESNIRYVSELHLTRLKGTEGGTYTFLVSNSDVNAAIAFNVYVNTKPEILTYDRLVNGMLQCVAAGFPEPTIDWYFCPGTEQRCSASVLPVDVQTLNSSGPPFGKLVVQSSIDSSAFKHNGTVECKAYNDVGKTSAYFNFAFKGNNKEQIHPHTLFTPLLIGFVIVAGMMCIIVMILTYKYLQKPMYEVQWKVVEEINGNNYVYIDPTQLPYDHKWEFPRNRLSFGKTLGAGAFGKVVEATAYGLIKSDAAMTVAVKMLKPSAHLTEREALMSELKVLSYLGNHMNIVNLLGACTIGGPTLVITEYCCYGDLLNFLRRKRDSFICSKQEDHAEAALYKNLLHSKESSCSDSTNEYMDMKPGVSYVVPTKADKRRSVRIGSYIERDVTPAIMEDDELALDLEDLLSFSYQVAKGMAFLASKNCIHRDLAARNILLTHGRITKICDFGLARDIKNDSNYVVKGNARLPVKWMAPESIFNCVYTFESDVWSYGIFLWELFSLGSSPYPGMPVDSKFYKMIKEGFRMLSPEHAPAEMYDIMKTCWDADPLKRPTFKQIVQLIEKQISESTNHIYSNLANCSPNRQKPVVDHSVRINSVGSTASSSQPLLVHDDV
# METHOD NOTES: c-Kit biochemical assay (AlphaScreen kinase activity)
// values below are reported IC50
REPORTED METRIC: IC50

| CPD SMILES | REPORTED METRIC | RESULT |
| --- | --- | --- |
| COc1ccc(-c2cc3c(N4CCC(C)(c5nc(C)c(-c6ccc(C(F)F)cc6)[nH]5)CC4)ncnc3[nH]2)cn1 | IC50 | 0.0001 to 1 µM |
| CCC1(c2nc(C)c(-c3ccc(OC)cc3)[nH]2)CCN(c2ncnc3[nH]c(C)cc23)CC1 | IC50 | 1 to 10 µM |
| Cc1nn(C)cc1-c1cc2c(N3CCC(c4nc(C)c(-c5ccccc5)[nH]4)CC3)ncnc2[nH]1 | IC50 | 0.0001 to 1 µM |
| COc1ncc(-c2cc3c(N4CCC(c5nc(C)c(-c6ccccc6)[nH]5)CC4)ncnc3[nH]2)cn1 | IC50 | 10 to 300 µM |
| Cc1nc(C2(C)CCN(c3ncnc4[nH]nc(C)c34)CC2)[nH]c1-c1ccc(Cl)cc1 | IC50 | 1 to 10 µM |
| Cc1[nH]c(C2CCN(c3ncnc4[nH]c(-c5ccncc5)cc34)CC2)nc1-c1ccccc1 | IC50 | 0.0001 to 1 µM |
| Cc1nc(C2CCN(c3ncnc4[nH]c(-c5ccc(F)cc5)cc34)CC2)[nH]c1-c1ccccc1 | IC50 | 0.0001 to 1 µM |
| CCOc1ccc(-c2[nH]c(C3(C)CCN(c4ncnc5[nH]c(-c6ccc(OC)nc6)cc45)CC3)nc2C)cc1 | IC50 | 0.0001 to 1 µM |
